# MEASUREMENT_TARGET: human GLP-1R (Homo sapiens, UniProt P43220)
# Construct: expressed in transfected cells; host or cells: HEK293 clonal cell line
# Sequence (P43220 24-463): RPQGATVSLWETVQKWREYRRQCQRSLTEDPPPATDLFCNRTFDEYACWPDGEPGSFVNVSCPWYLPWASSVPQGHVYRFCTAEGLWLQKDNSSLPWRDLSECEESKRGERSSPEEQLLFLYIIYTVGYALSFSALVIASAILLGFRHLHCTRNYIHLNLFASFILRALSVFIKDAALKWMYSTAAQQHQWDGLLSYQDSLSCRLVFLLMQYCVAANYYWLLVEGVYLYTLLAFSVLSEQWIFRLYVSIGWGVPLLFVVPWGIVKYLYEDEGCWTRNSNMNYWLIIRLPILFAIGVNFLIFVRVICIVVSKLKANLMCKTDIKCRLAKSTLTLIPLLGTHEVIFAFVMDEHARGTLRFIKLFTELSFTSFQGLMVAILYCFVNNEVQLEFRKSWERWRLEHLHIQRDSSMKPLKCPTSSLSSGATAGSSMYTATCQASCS
# ASSAY_REMARKS: Human GLP-1 Receptor Potentiator Assay (cAMP formation, HTRF, in presence of EC20 dose of oxyntomodulin)
# Format: cell-based
# SETUP_CONDITIONS: HEK293 GLP-1R cell line intracellular cAMP response; with 5 nM oxyntomodulin; relative EC50; read-out: EC50 (nM) and SEM (n)
Structures can show the parent of a compound that is named as a salt.
MEASURED_ENDPOINT: EC50 (nM)

>>> observed_measurement("COCC1Cc2c(ccc(OC)c2-c2ccc(O)c(C)c2)CN1Cc1ccc(C(C)C)cc1O (single isomer, unassigned) [Example 2, hydrochloride]")
15.7

* * *

Attribute: EC50
# MEASUREMENT_TARGET: human GIPR (Homo sapiens, UniProt P48546)
# Construct: expressed in transfected cells; host or cells: HEK293 clonal cell line
# Sequence (P48546 22-466): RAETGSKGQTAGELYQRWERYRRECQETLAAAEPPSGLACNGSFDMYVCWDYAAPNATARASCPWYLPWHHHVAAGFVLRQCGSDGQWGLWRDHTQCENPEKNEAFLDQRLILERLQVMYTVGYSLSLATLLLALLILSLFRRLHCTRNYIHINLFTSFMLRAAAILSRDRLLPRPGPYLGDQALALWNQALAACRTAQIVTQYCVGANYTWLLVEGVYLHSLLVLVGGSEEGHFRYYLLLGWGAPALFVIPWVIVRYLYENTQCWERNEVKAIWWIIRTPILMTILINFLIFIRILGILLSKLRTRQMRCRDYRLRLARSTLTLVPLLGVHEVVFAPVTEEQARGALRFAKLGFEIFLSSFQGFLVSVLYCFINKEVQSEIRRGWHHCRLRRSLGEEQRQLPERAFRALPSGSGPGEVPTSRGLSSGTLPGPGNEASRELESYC
# ASSAY_REMARKS: Human GIP Receptor Potentiator Assay (cAMP formation, HTRF, in presence of EC20 dose of GIP(1-42))
# Type: cell-based
# SETUP_CONDITIONS: HEK293 GIPR cell line intracellular cAMP response; with 25 pM GIP(1-42); relative EC50; read-out: EC50 (nM) and SEM (n)
Where a name gives a salt, the structure may show the parent alone.
MEASURED_ENDPOINT: EC50 (nM)

>>> observed_measurement("COc1ccc2c(c1-c1cc(F)c(O)c(NCC(C)C)c1)CCN(C(C)c1ccc(C(C)C)cc1)[C@@H]2C (single isomer, unassigned) [Example 1, dihydrochloride]")
11.9
>>> observed_measurement("COc1ccc2c(c1-c1cc(C)c(O)c(F)c1)CCN(C(C)c1ccc(C(C)C)cc1)[C@@H]2C (single isomer, unassigned) [Example 3, hydrochloride]")
37.5

# credit: patent US12454511B2
